IC50 for assorted compounds
Tested on: Cord blood CD34+ cells
Test: TPO-induced megakaryocytic maturation/differentiation of cord blood CD34+ cells in culture
Assay type: cell-based
Conditions: TPO-induced maturation, FIG. 1; mean of 2-4 independent experiments; read-out: IC50 against megakaryocyte maturation

>  <compound>
O=C1CN2Cc3c(ccc(Cl)c3Cl)N=C2N1 [Anagrelide]

>  <IC50>
110 to 130 nM

$$$$
>  <compound>
O=CC(=O)NC1=Nc2ccc(Cl)c(Cl)c2CN1

>  <IC50>
110 to 130 nM

$$$$
